compounds and their reported inhibition at 0.1 µM
test_target: P2X7 receptor (Homo sapiens)
Construct: host or cells: THP-1 cells differentiated with LPS and IFN-γ
assay_info: IL-1β release assay (BzATP-stimulated, LPS/IFN-γ differentiated THP-1 cells, ELISA)
Type: cell-based
condition: at 0.1 μM (asterisk symbols)

Known inhibition at 0.1 µM results, listed for orientation:
> print(dat)
                                   compound  experimental.result
1  CC(C)(C)OC(=O)N1CCCC1Cn1ccc2c(NC(=O)CC34CC5CC(CC(C5)C3)C4)cccc2c1=O (stereo not shown) [Compound 773]                ≥ 75%
2  O=C(CC12CC3CC(CC(C3)C1)C2)Nc1cccc2c(=O)n(CCc3ccncc3)ccc12 [Compound 784]                ≥ 75%
3  CC(C)Cn1ccc2c(NC(=O)CC34CC5CC(CC(C5)C3)C4)cccc2c1=O [Compound 871]                ≥ 75%
4  O=C(CC12CC3CC(CC(C3)C1)C2)Nc1cccc2c1CCN(C(CO)CO)C2=O [Compound 827]                ≥ 75%
5  O=C(CC12CC3CC(CC(C3)C1)C2)Nc1cccc2c1CCN(CC1COc3ccccc3O1)C2=O (stereo not shown) [Compound 872]                ≥ 75%
6  O=C(CC12CC3CC(CC(C3)C1)C2)Nc1cccc2c(=O)n(CCc3cccnc3)ccc12 [Compound 782]                ≥ 75%

Under P2X7 receptor (Homo sapiens): inhibition at 0.1 µM value of O=C(CC12CC3CC(CC(C3)C1)C2)Nc1cccc2c1CCN(CCCN1CCOCC1)C2=O [Compound 876] ?
≥ 75%

Then CC12CC3CC(C)(C1)CC(CC(=O)Nc1cccc4c(=O)n(CC5COc6ccccc6O5)ccc14)(C3)C2 (stereo not shown) [Compound 766] ?
50 to 75%

Then CC12CC3CC(C)(C1)CC(CC(=O)Nc1cccc4c(=O)[nH]ccc14)(C3)C2 [Compound 841] ?
≥ 75%

Then O=C(CC12CC3CC(CC(C3)C1)C2)Nc1cccc2c(=O)n(Cc3ccccc3Cl)ccc12 [Compound 793] ?
≥ 75%

Then CC12CC3CC(C)(C1)CC(CC(=O)Nc1cccc4c1CCN(CC1CCOCC1)C4=O)(C3)C2 [Compound 813] ?
≥ 75%

Then CCN1CCCC1CN1CCc2c(NC(=O)CC34CC5CC(CC(C5)C3)C4)cccc2C1=O (stereo not shown) [Compound 834] ?
≥ 75%

Then CC12CC3CC(C)(C1)CC(CC(=O)Nc1cccc4c1CCN(Cc1ccc(F)cc1F)C4=O)(C3)C2 [Compound 765] ?
25 to 50%

---

test_target: P2X7 receptor (Homo sapiens, UniProt Q99572)
Construct: host or cells: THP-1 cells differentiated with LPS and IFN-γ
assay_info: IL-1β release assay (BzATP-stimulated, LPS/IFN-γ differentiated THP-1 cells, ELISA)
Type: cell-based
condition: at 0.1 μM (asterisk symbols)
measure: inhibition at 0.1 µM

Known inhibition at 0.1 µM results, listed for orientation:
> print(dat)
                                   compound  experimental.result
1  O=C(CC12CC3CC(CC(C3)C1)C2)Nc1cccc2c(=O)[nH]ccc12                ≥ 75%
2  C[C@@H](c1ccccc1)n1ccc2c(NC(=O)CC34CC5CC(C)(CC(C)(C5)C3)C4)cccc2c1=O            50 to 75%
3  O=C(CC12CC3CC(CC(C3)C1)C2)Nc1cccc2c(=O)n(CCN3CCOCC3)ccc12                ≥ 75%
4  CC(C)(C)OC(=O)N1CCC[C@@H]1Cn1ccc2c(NC(=O)CC34CC5CC(CC(C5)C3)C4)cccc2c1=O                ≥ 75%
5  NC(=O)[C@H](Cc1ccccc1)n1ccc2c(NC(=O)CC34CC5CC(CC(C5)C3)C4)cccc2c1=O                ≥ 75%
6  O=C(Nc1cccc2c(=O)n(Cc3ccccc3)ccc12)C12CC3CC(CC(F)(C3)C1)C2            25 to 50%

So what's the measured inhibition at 0.1 µM for this one? CC(c1ccncc1)n1ccc2c(NC(=O)CC34CC5CC(CC(C5)C3)C4)cccc2c1=O (stereo not shown)
≥ 75%

---

test_target: P2X7 receptor (Homo sapiens, UniProt Q99572)
Construct: host or cells: THP-1 cells differentiated with LPS and IFN-γ
Sequence (Q99572 1-595): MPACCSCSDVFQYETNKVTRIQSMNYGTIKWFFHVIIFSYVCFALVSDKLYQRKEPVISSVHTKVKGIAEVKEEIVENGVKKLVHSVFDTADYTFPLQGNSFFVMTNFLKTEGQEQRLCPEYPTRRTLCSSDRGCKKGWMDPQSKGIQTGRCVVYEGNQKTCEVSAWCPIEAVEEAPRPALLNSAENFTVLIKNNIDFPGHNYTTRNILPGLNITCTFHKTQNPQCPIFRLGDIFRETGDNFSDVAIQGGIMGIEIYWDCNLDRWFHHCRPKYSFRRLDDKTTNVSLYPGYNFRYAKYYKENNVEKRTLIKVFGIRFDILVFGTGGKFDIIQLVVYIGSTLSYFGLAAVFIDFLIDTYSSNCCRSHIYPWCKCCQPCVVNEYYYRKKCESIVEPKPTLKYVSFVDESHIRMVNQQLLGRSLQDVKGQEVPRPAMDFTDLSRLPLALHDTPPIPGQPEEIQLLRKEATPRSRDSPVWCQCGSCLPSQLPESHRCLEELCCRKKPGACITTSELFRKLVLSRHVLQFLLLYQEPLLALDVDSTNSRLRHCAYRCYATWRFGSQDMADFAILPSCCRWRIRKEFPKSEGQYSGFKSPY
assay_info: IL-1β release assay (BzATP-stimulated, LPS/IFN-γ differentiated THP-1 cells, ELISA)
Type: cell-based
condition: at 0.1 μM (asterisk symbols)
compounds and their reported inhibition at 0.1 µM

Known inhibition at 0.1 µM results, listed for orientation:
> print(dat)
                                   compound  experimental.result
1  CC12CC3CC(C)(C1)CC(CC(=O)Nc1cccc4c1CCN(Cc1ccc5c(c1)OCO5)C4=O)(C3)C2                ≥ 75%
2  O=C(CC12CC3CC(CC(C3)C1)C2)Nc1cccc2c(=O)n(CCN3CCCC3)ccc12                ≥ 75%
3  O=C(CC12CC3CC(CC(C3)C1)C2)Nc1cccc2c1CCN(Cc1c(F)cccc1F)C2=O                ≥ 75%
4  CC(c1cccnc1)n1ccc2c(NC(=O)CC34CC5CC(CC(C5)C3)C4)cccc2c1=O (centres unmarked)                ≥ 75%
5  CC12CC3CC(C)(C1)CC(CC(=O)Nc1cccc4c(=O)n(CC5COCCO5)ccc14)(C3)C2 (centres unmarked)            50 to 75%
6  CC12CC3CC(C)(C1)CC(CC(=O)Nc1cccc4c1CCN(Cc1c(F)cccc1F)C4=O)(C3)C2                ≥ 75%
7  CS(=O)(=O)c1ccc(Cn2ccc3c(NC(=O)CC45CC6CC(CC(C6)C4)C5)cccc3c2=O)cc1            50 to 75%

So what's the measured inhibition at 0.1 µM for this one? CN1CCCC1CCN1CCc2c(NC(=O)CC34CC5CC(CC(C5)C3)C4)cccc2C1=O (centres unmarked)
≥ 75%

---

test_target: P2X7 receptor (Homo sapiens, UniProt Q99572)
Construct: host or cells: THP-1 cells differentiated with LPS and IFN-γ
assay_info: IL-1β release assay (BzATP-stimulated, LPS/IFN-γ differentiated THP-1 cells, ELISA)
Assay type: cell-based
condition: at 0.1 μM (asterisk symbols)
measure: inhibition at 0.1 µM

Known inhibition at 0.1 µM results, listed for orientation:
> print(dat)
                                   compound                               test.target  experimental.result
1  CCN(CC)CCn1ccc2c(NC(=O)CC34CC5CC(CC(C5)C3)C4)cccc2c1=O  P2X7 receptor (Homo sapiens, UniProt Q99572)                ≥ 75%
2  Cc1cccnc1CN1CCc2c(NC(=O)CC34CC5CC(CC(C5)C3)C4)cccc2C1=O  P2X7 receptor (Homo sapiens, UniProt Q99572)                ≥ 75%
3  CC(c1ccccc1)N1CCc2c(NC(=O)CC34CC5CC(C)(CC(C)(C5)C3)C4)cccc2C1=O (stereo not shown)  P2X7 receptor (Homo sapiens, UniProt Q99572)                ≥ 75%
4  CN1CCCC1CCn1ccc2c(NC(=O)CC34CC5CC(CC(C5)C3)C4)cccc2c1=O (stereo not shown)  P2X7 receptor (Homo sapiens, UniProt Q99572)                ≥ 75%
5  CC12CC3CC(C)(C1)CC(CC(=O)Nc1cccc4c1CCN(Cc1ccccc1F)C4=O)(C3)C2  P2X7 receptor (Homo sapiens, UniProt Q99572)            50 to 75%
6  O=C(CC12CC3CC(CC(C3)C1)C2)Nc1cccc2c(=O)n(CC3CCCN3)ccc12 (stereo not shown)  P2X7 receptor (Homo sapiens, UniProt Q99572)                ≥ 75%

So what's the measured inhibition at 0.1 µM for this one? `Cc1cc(CN2CCc3c(NC(=O)CC45CC6CC(CC(C6)C4)C5)cccc3C2=O)no1`
≥ 75%

Then `CC12CC3CC(C)(C1)CC(CC(=O)Nc1cccc4c(=O)n(Cc5cn6ccccc6n5)ccc14)(C3)C2` ?
≥ 75%

Then `O=C(CC12CC3CC(CC(C3)C1)C2)Nc1cccc2c1CCN(Cc1ccc3c(c1)OCCO3)C2=O` ?
≥ 75%

Then `CC12CC3CC(C)(C1)CC(CC(=O)Nc1cccc4c1CCN(Cc1ccccn1)C4=O)(C3)C2` ?
0 to 25%
